# procedure-text: Metabolic stability of the compound in rat plasma assessed as parent compound remaining measured after 30 mins
# Type: ADME, cell-free
# stated-conditions: read-out: Stability
measure: remaining at 0.5 h (%)

                                   compound             measure  measured_result
0  COc1ccc(S(=O)(=O)/C=C/c2ncccc2C(F)(F)F)nc1  remaining at 0.5 h             91.9
1    COc1ccnc(S(=O)(=O)/C=C/c2ccc(Cl)nc2)c1  remaining at 0.5 h             97.3
2      COc1cccc(S(=O)(=O)/C=C/c2ncccc2Cl)n1  remaining at 0.5 h               83

I. COc1ccnc(S(=O)(=O)/C=C/c2ncccc2Cl)c1
II. COc1ccnc(S(=O)(=O)/C=C/c2ccccc2Cl)c1
Lab note: check whether I or II shows the higher recorded remaining at 0.5 h. To answer, give the label that identifies your chosen option. II

---

# procedure-text: Metabolic stability of the compound in human liver microsomes assessed as parent compound remaining measured after 30 mins
# Type: ADME, Microsome
# stated-conditions: read-out: Stability
measure: remaining at 0.5 h (%)

>>> df
                         chemical_structure  measured_result
0    COc1ccnc(S(=O)(=O)/C=C/c2ccnc(Cl)c2)c1             88.4
1  COc1ncccc1S(=O)(=O)/C=C/c1ncccc1C(F)(F)F             59.4
2  COc1ncccc1S(=O)(=O)/C=C/c1ccccc1C(F)(F)F             75.2

---

# procedure-text: Metabolic stability of the compound in human liver microsomes assessed as parent compound remaining measured after 30 mins
# Type: ADME, Microsome
# stated-conditions: read-out: Stability
measure: remaining at 0.5 h (%)

Here's what some known entries look like.
                                   compound             measure  measured_result
0  COc1cccnc1[S+]([O-])/C=C/c1ccccc1C(F)(F)F (centres undefined)  remaining at 0.5 h             46.3
1    COc1ccnc(S(=O)(=O)/C=C/c2ccc(Cl)cn2)c1  remaining at 0.5 h             70.3

1. COc1cccnc1S(=O)(=O)/C=C/c1ncccc1C(F)(F)F
2. COc1cccnc1S(=O)(=O)/C=C/c1ccccc1C(F)(F)F
Hi there, can you help? I need to know whether 1 or 2 has lower measured remaining at 0.5 h. # reply format: chosen label 2

---

# procedure-text: Metabolic stability of the compound in human plasma assessed as parent compound remaining measured after 30 mins
# Assay type: ADME, cell-free
# stated-conditions: read-out: Stability
measure: remaining at 0.5 h (%)

                                    molecule  measured_result
 0  COc1ncccc1S(=O)(=O)/C=C/c1ncccc1C(F)(F)F             97.4
 1      COc1cccnc1C(=O)/C=C/c1ccccc1C(F)(F)F             96.5
 2        COc1cccnc1S(=O)(=O)/C=C/c1ncccc1Cl             92.8
 3  COc1ccnc([S+]([O-])/C=C/c2ccccc2C(F)(F)F)c1 (stereo not given)               96
 4        COc1cccnc1S(=O)(=O)/C=C/c1ccccc1Cl             92.4
 5  COc1cccc([S+]([O-])/C=C/c2ccccc2C(F)(F)F)n1 (stereo not given)             82.4
 6        COc1ncccc1S(=O)(=O)/C=C/c1ncccc1Cl             98.5
 7      COc1ccc(S(=O)(=O)/C=C/c2ncccc2Cl)nc1             96.7
 8      COc1ccnc(S(=O)(=O)/C=C/c2ncccc2Cl)c1               95
 9         COc1cccnc1S(=O)(=O)/C=C/c1ccccc1F             95.9
10  COc1ccc(S(=O)(=O)/C=C/c2ccccc2C(F)(F)F)nc1               99
11  COc1ncccc1S(=O)(=O)/C=C/c1ccccc1C(F)(F)F             91.3
12      COc1ccnc(S(=O)(=O)/C=C/c2ccncc2Cl)c1             83.6
13    COc1ccnc(S(=O)(=O)/C=C/c2ccnc(Cl)c2)c1             93.1

---

# target-or-test-system: CYP1A2 (Homo sapiens, UniProt P05177)
# Sequence (P05177 whole entry): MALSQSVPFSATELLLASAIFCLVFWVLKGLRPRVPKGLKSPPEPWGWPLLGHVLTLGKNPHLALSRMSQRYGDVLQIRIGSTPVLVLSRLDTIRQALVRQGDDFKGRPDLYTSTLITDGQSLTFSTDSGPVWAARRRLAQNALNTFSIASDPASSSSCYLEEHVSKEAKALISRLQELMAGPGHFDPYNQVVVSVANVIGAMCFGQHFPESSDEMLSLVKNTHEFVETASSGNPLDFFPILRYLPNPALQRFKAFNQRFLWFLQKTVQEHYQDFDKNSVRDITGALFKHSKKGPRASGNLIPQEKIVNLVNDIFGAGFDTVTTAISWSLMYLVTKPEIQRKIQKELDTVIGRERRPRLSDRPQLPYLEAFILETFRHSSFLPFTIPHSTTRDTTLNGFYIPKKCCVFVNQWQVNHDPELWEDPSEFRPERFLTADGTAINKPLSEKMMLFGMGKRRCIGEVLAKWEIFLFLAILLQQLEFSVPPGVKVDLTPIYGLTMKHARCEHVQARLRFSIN
# procedure-text: Inhibition of CYP1A2 (unknown origin) assessed as enzyme activity at 10 uM relative to control
# Format: ADME
# Set-up: scale not given: the % may be the effect or the level left
# stated-conditions: read-out: Activity
measure: activity at 10 µM (%)

                                   molecule  measured_result
0  COc1ncccc1S(=O)(=O)/C=C/c1ncccc1C(F)(F)F             57.3
1        COc1cccnc1S(=O)(=O)/C=C/c1ccccc1Cl             71.8
2        COc1ncccc1S(=O)(=O)/C=C/c1ccccc1Cl             10.7
3  COc1ccnc([S+]([O-])/C=C/c2ccccc2C(F)(F)F)c1 (configuration not stated)             34.3
4        COc1ncccc1S(=O)(=O)/C=C/c1ncccc1Cl               31
5      COc1ccnc(S(=O)(=O)/C=C/c2ccncc2Cl)c1             29.9
6  COc1cccc(S(=O)(=O)/C=C/c2ccccc2C(F)(F)F)n1              4.9
7  COc1ncccc1S(=O)(=O)/C=C/c1ccccc1C(F)(F)F             12.4
8  COc1ccnc(S(=O)(=O)/C=C/c2ncccc2C(F)(F)F)c1             72.2
9  COc1cccnc1S(=O)(=O)/C=C/c1ccccc1C(F)(F)F             71.2

A. COc1ccc([S+]([O-])/C=C/c2ccccc2C(F)(F)F)nc1 (configuration not stated)
B. COc1cccnc1S(=O)(=O)/C=C/c1ncccc1Cl
For the pair A and B , which member has the lower activity at 10 µM number? When you have decided, please share the label of that item. A

a. COc1cccnc1S(=O)(=O)/C=C/c1ccccc1F
b. COc1cccc(S(=O)(=O)/C=C/c2ncccc2Cl)n1
Lab log: flag the item ( a or b ) with the smaller activity at 10 µM figure. The response must carry the label of the picked entry. b
(b: 23.1%, a: 79.4%)

I. COc1cccnc1S(=O)(=O)/C=C/c1ncccc1C(F)(F)F
II. COc1cccnc1[S+]([O-])/C=C/c1ccccc1C(F)(F)F (configuration not stated)
// pick larger activity at 10 µM from pair: I vs II Reply with the label of the item you choose. I
(I: 72.6%, II: 32.8%)

---

# target-or-test-system: CYP2C9 (Homo sapiens, UniProt P11712)
# Sequence (P11712 whole entry): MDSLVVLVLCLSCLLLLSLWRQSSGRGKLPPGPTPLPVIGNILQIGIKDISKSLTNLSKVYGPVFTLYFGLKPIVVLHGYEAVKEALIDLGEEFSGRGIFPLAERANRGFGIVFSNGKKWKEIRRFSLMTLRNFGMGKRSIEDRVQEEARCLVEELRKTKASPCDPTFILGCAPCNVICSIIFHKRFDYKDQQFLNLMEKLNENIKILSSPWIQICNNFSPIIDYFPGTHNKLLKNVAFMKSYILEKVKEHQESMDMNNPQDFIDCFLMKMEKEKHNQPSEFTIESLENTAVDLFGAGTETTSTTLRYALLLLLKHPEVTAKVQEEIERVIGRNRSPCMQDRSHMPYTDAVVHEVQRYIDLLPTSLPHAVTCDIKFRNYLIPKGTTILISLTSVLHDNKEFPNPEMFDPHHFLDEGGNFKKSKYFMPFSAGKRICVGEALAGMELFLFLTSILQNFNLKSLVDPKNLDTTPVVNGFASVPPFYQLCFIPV
# procedure-text: Inhibition of CYP2C9 (unknown origin) assessed as enzyme activity at 10 uM relative to control
# Format: ADME
# Set-up: scale not given: the % may be the effect or the level left
# stated-conditions: read-out: Activity
activity at 10 µM values, listed per item

Quick one: activity at 10 µM of COc1ccnc(S(=O)(=O)/C=C/c2cccnc2Cl)c1 ? > 99%

Next up: COc1ccncc1S(=O)(=O)/C=C/c1ccccc1C(F)(F)F > 99%

Next entry: COc1ccncc1S(=O)(=O)/C=C/c1ncccc1Cl > 99%

What do we get for COc1cccnc1/C=C/S(=O)(=O)c1ncccc1OC ? 66.5%

Moving on to the next compound: COc1ccnc([S+]([O-])/C=C/c2ccccc2C(F)(F)F)c1 (centres undefined) 81.9%

Try COc1ccc([S+]([O-])/C=C/c2ccccc2C(F)(F)F)nc1 (centres undefined) next. > 99%

Would you mind doing COc1ncccc1S(=O)(=O)/C=C/c1ccccc1C(F)(F)F as well? > 99%

Let us now turn to COc1cccnc1[S+]([O-])/C=C/c1ccccc1C(F)(F)F (centres undefined) 56.3%

Field entry: COc1ccnc(S(=O)(=O)/C=C/c2ncccc2Cl)c1 76.1%

How about this compound: COc1cccnc1C(=O)/C=C/c1ccccc1C(F)(F)F > 99%

Also need COc1ccnc(S(=O)(=O)/C=C/c2ncccc2C(F)(F)F)c1 , thanks. 31%

What about this compound? COc1ncccc1S(=O)(=O)/C=C/c1ccccc1Cl > 99%

What do you get for COc1cccc(S(=O)(=O)/C=C/c2ccccc2Cl)n1 ? > 99%

Ok, now COc1ccnc(S(=O)(=O)/C=C/c2ccc(Cl)cn2)c1 > 99%

---

# procedure-text: Metabolic stability of the compound in rat plasma assessed as parent compound remaining measured after 30 mins
# Type: ADME, cell-free
# stated-conditions: read-out: Stability
measure: remaining at 0.5 h (%)

In [3]: df
Out[3]:
                                   compound  result_unit  measured_result
0    COc1ccnc(S(=O)(=O)/C=C/c2cccc(Cl)c2)c1            %             94.7
1  COc1ccnc(S(=O)(=O)/C=C/c2ncccc2C(F)(F)F)c1            %             82.4
2    COc1ccnc(S(=O)(=O)/C=C/c2ccc(Cl)cn2)c1            %             84.8
3  COc1cccc([S+]([O-])/C=C/c2ccccc2C(F)(F)F)n1 (centres undefined)            %             89.8
4         COc1cccnc1S(=O)(=O)/C=C/c1ccccc1F            %               93
5      COc1ccc(S(=O)(=O)/C=C/c2ncccc2Cl)nc1            %             91.5

Data credit: ChEMBL document CHEMBL5370549
